Where do the numbers come from? From paper PMC5876303.

- test description: in vitro
- Assay type: cell-based
- condition description: mouse, Cell viability (%)
observation type: viability at 72 h, 250 μg/ml

Example entries begin here.
O=C1Oc2cc([N+](=O)[O-])ccc2N/C1=C\C(=O)c1ccc(F)cc1 [Compound 20x] :: > 65%
O=C1Oc2ccc([N+](=O)[O-])cc2N/C1=C\C(=O)c1ccccc1 [Compound 20t] :: > 65%

Switching to the query record.
Query: Would you mind telling me what viability at 72 h, 250 μg/ml value was observed for COc1ccc(C(=O)/C=C2\Nc3ccccc3OC2=O)cc1 [Compound 20b] ?
Result: > 65%

* * *

melting point values, listed per item

Some compounds with recorded melting point:
O=C1Oc2cc([N+](=O)[O-])ccc2N/C1=C\C(=O)c1ccc(F)cc1 [Compound 20x] :: 235 to 237 °C
O=C1Oc2ccc(Cl)cc2N/C1=C\C(=O)c1ccc(Br)cc1 [Compound 20g] :: 175 to 177 °C
O=C1Oc2ccc(Cl)cc2N/C1=C\C(=O)c1ccc(Cl)cc1 [Compound 20e] :: 182 to 185 °C
O=C1Oc2ccc(Cl)cc2N/C1=C\C(=O)c1ccc(F)cc1 [Compound 20d] :: 155 to 157 °C
O=C1Oc2ccc(Cl)cc2N/C1=C\C(=O)c1ccccc1 [Compound 20c] :: 185 to 187 °C

Query: Could you tell me which melting point is on file for COc1ccc(C(=O)/C=C2\Nc3ccccc3OC2=O)cc1 [Compound 20b] ?
Result: 200 to 203 °C

Query: Which melting point value belongs to O=C1Oc2ccc([N+](=O)[O-])cc2N/C1=C\C(=O)c1ccccc1 [Compound 20t] ?
Result: 198 to 200 °C

Query: Record request: melting point value, item Cc1ccc(C(=O)/C=C2\Nc3cc(Cl)ccc3OC2=O)cc1 [Compound 20h]
Result: 160 to 162 °C

Query: Any idea what its melting point is? The compound is O=C1Oc2cc([N+](=O)[O-])ccc2N/C1=C\C(=O)c1ccc(Cl)cc1 [Compound 20y]
Result: 205 to 207 °C

Query: Recorded melting point of Cc1ccc2c(c1)N/C(=C\C(=O)c1ccc(Cl)cc1Cl)C(=O)O2 [Compound 20k] , please.
Result: 142 to 145 °C

Query: May I ask what melting point has been recorded for COc1ccc(C(=O)/C=C2\Nc3cc(C)ccc3OC2=O)cc1 [Compound 20l] ?
Result: 180 to 182 °C

Query: # melting point lookup, item O=C1Oc2ccccc2N/C1=C\C(=O)c1ccc([N+](=O)[O-])cc1 [Compound 20s]
Result: 207 to 209 °C

Query: Any idea what melting point was measured for Cc1ccc(C(=O)/C=C2\Nc3cc(C)cc(Br)c3OC2=O)cc1 [Compound 20q] ?
Result: 219 to 220 °C

Query: Given the entry O=C1Oc2cc([N+](=O)[O-])ccc2N/C1=C\C(=O)c1ccccc1 [Compound 20w] , report its measured melting point.
Result: 240 to 242 °C

Query: Bench note: what melting point did O=C1Oc2cc([N+](=O)[O-])ccc2N/C1=C\C(=O)c1ccc(Br)cc1 [Compound 20aa] show?
Result: 230 to 232 °C

Query: Requested field: melting point. Item: O=C1Oc2ccc([N+](=O)[O-])cc2N/C1=C\C(=O)c1ccc(F)cc1 [Compound 20u]
Result: > 250 °C

Query: # lookup: melting point of Cc1cc(Br)c2c(c1)N/C(=C\C(=O)c1ccc(Br)cc1)C(=O)O2 [Compound 20p]
Result: 259 to 260 °C

Query: // lookup melting point for O=C1Oc2ccc(Cl)cc2N/C1=C\C(=O)c1ccc(Cl)cc1Cl [Compound 20f]
Result: 135 to 137 °C

Query: // melting point lookup, key: O=C1Oc2cc([N+](=O)[O-])ccc2N/C1=C\C(=O)c1ccc(Cl)cc1Cl [Compound 20z]
Result: 208 to 210 °C

Query: What value of measured melting point is listed for COc1ccc(C(=O)/C=C2\Nc3cc([N+](=O)[O-])ccc3OC2=O)cc1 [Compound 20v] ?
Result: 195 to 197 °C
